The following molecules are shown together with reported MIC at 600 nm LD50 values.
Tested on: P. aeruginosa PAO1
Assay type: cell-based, Pseudomonas aeruginosa
ASSAY CONTEXT: Table 5; regular PAO1 (no GFP), 1x BM2; absorbance 600 nm; mean of three biological replicates
Residues, ends and D or L forms follow the SMILES beside them.

Solved entries (count: 2):
{"MOLECULE": "CC(C)C[C@H](NC(=O)[C@H](Cc1ccccc1)NC(=O)[C@@H]1CCCN1C(=O)[C@H](Cc1c[nH]c2ccccc12)NC(=O)[C@H](Cc1c[nH]c2ccccc12)NC(=O)[C@H](Cc1c[nH]c2ccccc12)NC(=O)[C@@H]1CCCN1C(=O)[C@H](Cc1ccccc1)NC(=O)[C@H](CCCNC(=N)N)NC(=O)[C@H](CCCNC(=N)N)NC(=O)[C@@H](N)C(C)C)C(=O)N[C@@H](CCCNC(=N)N)C(=O)N[C@@H](CCCNC(=N)N)C(N)=O [Tritrp-Arg]", "MIC at 600 nm LD50": "4 µM"}
{"MOLECULE": "CC(C)[C@H](NC(=O)[C@@H]1CCCN1C(=O)[C@@H](N)Cc1ccccc1)C(=O)N[C@H](C(=O)N[C@@H](Cc1c[nH]c2ccccc12)C(=O)N[C@@H](CCCCN)C(=O)N[C@@H](Cc1c[nH]c2ccccc12)C(=O)N[C@@H](Cc1c[nH]c2ccccc12)C(=O)N[C@@H](CCCCN)C(=O)N[C@@H](Cc1c[nH]c2ccccc12)C(=O)N[C@@H](Cc1c[nH]c2ccccc12)C(=O)N[C@@H](CCCCN)C(=O)NCC(N)=O)[C@@H](C)O [PuroA-Lys, reference compound] (H-FPVTWKWWKWWKG-NH2)", "MIC at 600 nm LD50": "8 µM"}

**Q:** Can you look up the measured MIC at 600 nm LD50 of CC(C)C[C@H](NC(=O)[C@H](Cc1ccccc1)NC(=O)[C@@H]1CCCN1C(=O)[C@H](Cc1c[nH]c2ccccc12)NC(=O)[C@H](Cc1c[nH]c2ccccc12)NC(=O)[C@H](Cc1c[nH]c2ccccc12)NC(=O)[C@H](C)NC(=O)[C@H](Cc1ccccc1)NC(=O)[C@H](CCCNC(=N)N)NC(=O)[C@H](CCCNC(=N)N)NC(=O)[C@@H](N)C(C)C)C(=O)N[C@@H](CCCNC(=N)N)C(=O)N[C@@H](CCCNC(=N)N)C(N)=O [Tritrp-P5A] (H-VRRFAWWWPFLRR-NH2) for me?
**A:** 4 µM
